experiment: Drug concentration in female CD-1 mouse brain at 44 mg/kg, ip measured after 4 hrs by LC-MS/MS analysis; assay type: ADME, organism-based; conditions: read-out: Ct
assay readout: concentration at 4 h
Form entry: enter the amount, then its unit.

Request: Field request: concentration at 4 h | item: COc1cc2nc3n(c(=O)c2cc1Cl)CC[C@H]1[C@H]3CCCN1CC1COC1
Response: 9090 ng/g

###

test system: Naegleria fowleri; experiment: Anti-ameobic activity against Naegleria fowleri Nf69 (ATCC 30215) trophozoites assessed as inhibition of amoeba growth incubated for 48 hrs by CellTiter-Glo assay; type: functional, organism-based; conditions: Naegleria fowleri, Nf69 (ATCC 30215), 48 h
Could you please report measured EC50 for the items listed next?
Note: unit µM is implicit; provide only the numeric part.

Request: Data request, read-out EC50, for CN(C)CC(=O)N1CCC[C@@H]2c3nc4cc(Cl)c(Cl)cc4c(=O)n3CC[C@H]21 (racemic)
Response: 0.72

Request: Another molecule to look at: CN1CCC[C@H]2c3nc4cc(Cl)c(Cl)cc4c(=O)n3CC[C@@H]21
Response: 2.6

Request: // query: COc1cc2nc3n(c(=O)c2cc1Cl)CC[C@H]1[C@H]3CCCN1CC(C)C
Response: 0.027

Request: And for O=c1c2cc(Cl)c(Cl)cc2nc2n1CC[C@@H]1[C@@H]2CCCN1Cc1cccnc1 (racemic) ?
Response: 0.0002

Request: Try this molecule next: O=c1c2cc(Cl)c(Cl)cc2nc2n1CC[C@H]1NCCC[C@H]21 (racemic)
Response: 1.6

Request: Same thing, different molecule: COc1cc2nc3n(c(=O)c2cc1Cl)CC[C@@H]1[C@@H]3CCCN1CC1CCC1 (racemic)
Response: 0.015

Request: Next up: COc1cc2nc3n(c(=O)c2cc1Cl)CC[C@@H]1[C@H]3CCCN1C (racemic)
Response: 0.38

Request: Now the molecule CN1CCC[C@H]2c3nc4cc(Cl)c(Cl)cc4c(=O)n3CC[C@H]21 (racemic)
Response: 0.26

Request: Please give the result for COc1cc2nc3n(c(=O)c2cc1Cl)CC[C@@H]1[C@@H]3CCCN1C (racemic) too.
Response: 0.43

Request: What about this molecule? CN1CCC[C@H]2c3nc4ccc(Cl)cc4c(=O)n3CC[C@H]21 (racemic)
Response: 2.2

###

experiment: Metabolic stability in CD-1 mouse liver microsomes assessed as half-life incubated for 60 mins by LC-MS/MS analysis; assay type: ADME, Microsome; settings: 1 h
assay readout: log10 t1/2 (log10 of the value in min)
Log10 applied to t1/2; unit prior to transform: min.

Request: What log10 t1/2 value was documented for this compound, CN1CCC[C@@H]2c3nc4ccc(Cl)cc4c(=O)n3CC[C@H]21 ?
Response: 1.06

Request: Next record, please: COc1cc2nc3n(c(=O)c2cc1C#N)CC[C@@H]1[C@@H]3CCCN1CC1COC1 (racemic)
Response: 2.02

Request: # repeat for COCCN1CCC[C@@H]2c3nc4cc(Cl)c(Cl)cc4c(=O)n3CC[C@H]21 (racemic)
Response: 1.23

Request: Likewise for CC(C)OCCN1CCC[C@@H]2c3nc4cc(Cl)c(Cl)cc4c(=O)n3CC[C@H]21 (racemic) ?
Response: 0.99

Request: O=c1c2cc(Cl)c(Cl)cc2nc2n1CC[C@@H]1[C@@H]2CCCN1CCO (racemic) , same question.
Response: 1.92

Request: Next record, please: COc1cc2nc3n(c(=O)c2cc1Cl)CC[C@@H]1[C@@H]3CCCN1CC1COC1
Response: 1.88

Request: For CN1CCC[C@@H]2c3nc4ccc(C(F)(F)F)cc4c(=O)n3CC[C@H]21 (racemic) then?
Response: 1.33

Request: Field entry: CN1CCC[C@@H]2c3nc4cc(Cl)c(Cl)cc4c(=O)n3CC[C@H]21
Response: 0.79

Request: Field entry: CC(C)CN1CCC[C@@H]2c3nc4cc(Cl)c(Cl)cc4c(=O)n3CC[C@H]21 (racemic)
Response: 1.29

Request: What would you report for COc1cc2nc3n(c(=O)c2cc1Cl)CC[C@@H]1[C@@H]3CCCN1CCN1CCOCC1 (racemic) ?
Response: 1.47

Request: Likewise for O=c1c2cc(Cl)c(Cl)cc2nc2n1CC[C@@H]1[C@@H]2CCCN1CC1CCOCC1 (racemic) ?
Response: 1.83

Request: // query: CN1CCC[C@@H]2c3nc4ccc(Cl)cc4c(=O)n3CC[C@H]21 (racemic)
Response: 1.27

Request: Please do the same for COc1cc2nc3n(c(=O)c2cc1Cl)CC[C@H]1[C@H]3CCCN1CC1COC1 as well.
Response: 1.68

Request: What about O=c1c2cc(Cl)c(Cl)cc2nc2n1CC[C@@H]1[C@@H]2CCCN1CC1CC1 (racemic) ?
Response: 1.26

Request: Next compound: O=c1c2cc(Cl)c(Cl)cc2nc2n1CC[C@@H]1[C@@H]2CCCN1CCN1CCOCC1 (racemic)
Response: 1.88

Request: Repeat with O=c1c2cc(Cl)c(Cl)cc2nc2n1CC[C@@H]1[C@@H]2CCCN1Cc1cccnc1 (racemic)
Response: 1.34
